test system: HOP-92 NSCLC; test: NCI tumour cell line growth inhibition, 48 h
reported.metric: TGI (µM)
All answers are understood in µM, so give the number only.

Examples with their reported TGI follow.
- molecule: "COc1cc(/C=C/C(=O)c2ccc(F)cc2)ccc1OCCCN1CCN(CC(=O)Nc2ccc(Cl)cc2C(=O)c2ccccc2Cl)CC1"
  tested.system: "HOP-92 NSCLC"
  unit.string: "µM"
  TGI: 10.3
- molecule: "CCCCCCCCC/C=C1\\CCC(CN(C)C)C1=O (stereo not given)"
  tested.system: "HOP-92 NSCLC"
  unit.string: "µM"
  TGI: 4.39
- molecule: "Cc1[nH]c(=O)nc(Nc2ccc(Cl)cc2)c1C(=O)N1CCN(CCO)CC1"
  tested.system: "HOP-92 NSCLC"
  unit.string: "µM"
  TGI: 71.6
- molecule: "CCOC(=O)C1CCCCN1C(=O)c1ccc(Nc2cnc3cc(C(F)(F)F)ccc3n2)cc1 (stereo not given)"
  tested.system: "HOP-92 NSCLC"
  unit.string: "µM"
  TGI: 5.93
- molecule: "CCOC(=O)c1c(NC(=S)Nc2ccccc2)sc2c1CCOC2"
  tested.system: "HOP-92 NSCLC"
  unit.string: "µM"
  TGI: 89.4
- molecule: "CNC(=O)OCc1c2ccncc2c(C)c2c1[nH]c1ccc(OC)cc12"
  tested.system: "HOP-92 NSCLC"
  unit.string: "µM"
  TGI: 0.618
- molecule: "Cc1ccc(-c2nc3nc(-c4ccccc4)nc(N4CCNCC4)c3o2)cc1"
  tested.system: "HOP-92 NSCLC"
  unit.string: "µM"
  TGI: 3.13
- molecule: "CC(C)(C)c1[nH]nc2c1C(c1cc3ccccc3[nH]c1=O)Nc1cc(C(=O)OCc3ccccc3)ccc1N2 (stereo not given)"
  tested.system: "HOP-92 NSCLC"
  unit.string: "µM"
  TGI: 8.34

Asked: Can you look up TGI on HOP-92 NSCLC for O=C1c2ccc3c4c(ccc(c24)C(=O)N1CCCNCc1ccccc1Cl)C(=O)N(CCCNCc1ccccc1Cl)C3=O ?
Given back: 2.37

Asked: Give recorded TGI with HOP-92 NSCLC for the following molecule: COc1cccc(/C=C2\S/C(=N/Nc3nc(-c4ccc([N+](=O)[O-])cc4)cs3)NC2=O)c1O
Given back: 33.6

Asked: Recorded TGI for C[C@]12CC[C@@H]3c4ccc(O)cc4CC[C@H]3[C@@H]1Cc1cnc(N)nc12 with HOP-92 NSCLC, please?
Given back: 31.6

Asked: I'm curious: which TGI was measured for C[CH2][Sn]([CH2]C)([O]C(=O)c1ccccc1F)[O][Sn]([CH2]C)([CH2]C)[O]C(=O)c1ccccc1F tested on HOP-92 NSCLC?
Given back: 34.7

Asked: What measured TGI is associated with O=[N+]([O-])c1cc(Cl)cnc1Br on HOP-92 NSCLC?
Given back: 25.4

Asked: Field: TGI (HOP-92 NSCLC). Entry: CC(=O)[CH-]C(=O)c1ccccc1.CC(=O)[CH-]C(=O)c1ccccc1.CC(=O)[CH-]C(=O)c1ccccc1.[In+3]
Given back: 49.8

Asked: Which TGI is reported with HOP-92 NSCLC for this entry: O=C(O)C(CS)NCc1c2ccccc2nc2ccccc12 (stereo not given) ?
Given back: 88.9

Asked: What is its TGI for HOP-92 NSCLC? Entry: COc1ccc(NC(=S)c2ccoc2C)cc1CC(=O)OC(C)C
Given back: 67.9

Asked: Field: TGI (HOP-92 NSCLC). Entry: Nc1ncnc2c1c(-c1ccc(Oc3ccccc3)cc1)nn2C[C@@H]1SSC[C@H]1O
Given back: 5.87

Asked: Could you share what TGI was measured for COc1cc([N+](=O)[O-])c(OC)cc1-c1nc2sccn2c1/C=N/N=C(N)N , tested on HOP-92 NSCLC?
Given back: 45.4

Asked: Item NS(=O)(=O)c1ccc(/C=C/c2ccc(O)cc2)cc1 with HOP-92 NSCLC - TGI?
Given back: 39.5
